Population Pyknosed Nuclei (%) reference
test system: HEK-293T; assay: Multiplex assay against HEK293T; type: toxicity, cell-based; details: human, 48 h, 1 µM, compound concentration 1 uM

- molecule: "COc1c(C)cc(NC(=O)c2nn(Cc3ccc(F)cc3)c3c2CN(C(=O)c2ccc[nH]2)C[C@]3(C)C(N)=O)cc1C"
  Population Pyknosed Nuclei (%): 6
- molecule: "Cl.NCCc1ccc(O)c(O)c1 [DOPAMINE HYDROCHLORIDE]"
  Population Pyknosed Nuclei (%): 7
- molecule: "CN1CCN2c3ncccc3Cc3ccccc3C2C1 (stereo not drawn) [MIRTAZAPINE]"
  Population Pyknosed Nuclei (%): 6
- molecule: "CCCCCCNC(=O)Nc1ccc(S(=O)(=O)Nc2ccc(CCNC[C@H](O)COc3ccc(O)cc3)cc2)cc1 [L-755507]"
  Population Pyknosed Nuclei (%): 6
- molecule: "COc1ccc2c(c1)C(C(=O)N(Cc1ccc(N(C)C)cc1)c1ccc(C(C)C)cc1)CCC2.Cl (stereo not drawn)"
  Population Pyknosed Nuclei (%): 6
- molecule: "COc1cc(C(=O)N2CC[C@@H](O)[C@@H](N)C2)cc2nc(-c3cc4ccccc4n3CC3CC3)n(C)c12.Cl"
  Population Pyknosed Nuclei (%): 10
- molecule: "N#Cc1cc(F)cc(-c2nc(-c3ccc(F)cn3)no2)c1"
  Population Pyknosed Nuclei (%): 6
- molecule: "CC(F)(F)CN1CCOc2c(nn(-c3ccccc3Cl)c2-c2ccc(Cl)cc2)C1=O"
  Population Pyknosed Nuclei (%): 7

Origin of values: ChEMBL document CHEMBL5724801
